Origin of measurements: patent US5191079A

Would you kindly list MIC for each of these compounds?
System: clinically isolated Staphylococcus aureus
Assay: In vitro antibacterial activity against clinical isolates, Experiment 2
Assay type: cell-based
Details: 25 clinical strains S. aureus incl. 16 methicillin resistant

Data request, read-out MIC, for CN1Cc2csc3c(C(=O)O)c(=O)c4cc(F)c(N5CCO[C@H](CO)C5)c1c4n23 [Compound (M)]
0.006 to 0.78 µg/mL

Quick one: CN1Cc2csc3c(C(=O)O)c(=O)c4cc(F)c(N5CCC(O)CC5)c1c4n23 [Compound (L)]
0.006 to 0.39 µg/mL

Would you mind doing CC1CN(c2c(F)cc3c(=O)c(C(=O)O)c4scc5n4c3c2N(C)C5)CCO1 (centres unmarked) [Compound (A)] as well?
0.006 to 0.2 µg/mL

Another compound to look at: CN1Cc2csc3c(C(=O)O)c(=O)c4cc(F)c(N5CCO[C@@H](CO)C5)c1c4n23 [Compound (N)]
0.006 to 0.78 µg/mL

Param item: CCOCC1CN(c2c(F)cc3c(=O)c(C(=O)O)c4scc5n4c3c2N(C)C5)CCO1 (centres unmarked) [Compound (Q)]
0.006 to 0.78 µg/mL

And CN1Cc2csc3c(C(=O)O)c(=O)c4cc(F)c(N5CCN6CCOC[C@H]6C5)c1c4n23 [Compound (F)] ?
0.013 to 0.78 µg/mL

Note, next up: CN1Cc2csc3c(C(=O)O)c(=O)c4cc(F)c(N5CCC(N(C)C)CC5)c1c4n23 [Compound (H)]
0.05 to 3.13 µg/mL

Now give it for CN1Cc2csc3c(C(=O)O)c(=O)c4cc(F)c(N5CCOC(CF)C5)c1c4n23 (centres unmarked) [Compound (C)] too.
0.006 to 0.2 µg/mL
